Property: pKi; scope: individual molecules
# Measured Target: Sigma non-opioid intracellular receptor 1 (Cavia porcellus)
# Sequence (Q60492 whole entry): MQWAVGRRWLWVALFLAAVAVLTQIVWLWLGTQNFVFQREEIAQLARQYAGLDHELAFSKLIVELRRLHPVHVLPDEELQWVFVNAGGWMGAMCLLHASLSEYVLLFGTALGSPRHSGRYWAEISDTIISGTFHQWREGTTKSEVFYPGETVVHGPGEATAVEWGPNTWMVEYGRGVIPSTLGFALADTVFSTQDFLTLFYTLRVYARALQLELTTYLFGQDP
# Assay Remarks: Displacement of [3H](+)-pentazocine from sigma-1 receptor in guinea pig brain
Remember the convention: pKi equals -log10 of concentration in molar.

[
  {
    "Molecule": "OC12C3C4CC5C6C4C1C6C(C53)N2CCc1ccc(Cl)c(Cl)c1 (stereo unspecified)",
    "pKi": 8.00
  },
  {
    "Molecule": "OC12C3C4CC5C6C4C1C6C(C53)N2Cc1cccc(Br)c1 (stereo unspecified)",
    "pKi": 6.68
  },
  {
    "Molecule": "OC12C3C4CC5C6C4C1C6C(C53)N2Cc1cccc(C(F)(F)F)c1 (stereo unspecified)",
    "pKi": 6.57
  },
  {
    "Molecule": "OC12C3C4CC5C6C4C1C6C(C53)N2CCCCc1ccccc1 (stereo unspecified)",
    "pKi": 8.05
  },
  {
    "Molecule": "OC12C3C4CC5C6C4C1C6C(C53)N2CCc1ccc(Br)cc1 (stereo unspecified)",
    "pKi": 8.00
  }
]

# input for lookup
Incoming: Returns the measured pKi for the input molecule. Input: OC12C3C4CC5C6C4C1C6C(C53)N2Cc1ccc(I)cc1 (stereo unspecified)
Outgoing: 7.09

Sourced from ChEMBL document CHEMBL2331127
